Listing: pIC50 of selected compounds
target: UniProt Q96LB1; assay: MRGPRX2 Activity Assay
The scale used: pIC50 is minus the common logarithm of the concentration in molar units.

C[C@@H](C(=O)Nc1nc2cc3c(cc2s1)OC(F)(F)O3)N1CCC(F)(F)[C@H](c2c[nH]c(=O)cn2)C1    5.99
C[C@@H](C(=O)Nc1nc2cc3c(cc2s1)CCC3)N1CCC(F)(F)[C@@H](c2ccc(=O)[nH]c2)C1    6.53
C[C@@H](C(=O)Nc1nc2cc3c(cc2s1)OCCO3)N1CCC(F)(F)[C@@H](c2ccc(=O)[nH]c2)C1    8.07
C[C@@H](C(=O)Nc1nc2cc3c(cc2s1)OC(F)(F)O3)N1CCC(F)(F)[C@H](c2c[nH]c(=O)c(CN3CCOCC3)c2)C1    6.52
C[C@@H](C(=O)Nc1nc2cc3c(cc2s1)OC(F)(F)O3)N1CCC(F)(F)[C@H](c2cc[n+]([O-])c(CN)c2)C1    7.49

Task item: Enter reported pIC50 observed with UniProt Q96LB1 for `C[C@@H](C(=O)Nc1nc2cc3c(cc2s1)OC(F)(F)O3)N1CCC(F)(F)[C@@H](c2ncn[nH]2)C1`
Reply: 7.51

Task item: Param readout = pIC50; param system = UniProt Q96LB1; param query = `C[C@@H](C(=O)Nc1nc2cc3c(cc2s1)CCC3)N1CCC(F)(F)[C@H](c2ccc(=O)[nH]c2)C1` ; response: value
Reply: 7.74

Task item: Short answer please: pIC50, UniProt Q96LB1, entry `C[C@@H](C(=O)Nc1nc2cc3c(cc2s1)OC(F)(F)O3)N1CCC(F)(F)[C@@H](c2c[nH]c(=O)c(CN)c2)C1`
Reply: 5.68

---

Target: Mas-related G-protein coupled receptor member X2 (Homo sapiens, UniProt Q96LB1)
Sequence (Q96LB1 whole entry): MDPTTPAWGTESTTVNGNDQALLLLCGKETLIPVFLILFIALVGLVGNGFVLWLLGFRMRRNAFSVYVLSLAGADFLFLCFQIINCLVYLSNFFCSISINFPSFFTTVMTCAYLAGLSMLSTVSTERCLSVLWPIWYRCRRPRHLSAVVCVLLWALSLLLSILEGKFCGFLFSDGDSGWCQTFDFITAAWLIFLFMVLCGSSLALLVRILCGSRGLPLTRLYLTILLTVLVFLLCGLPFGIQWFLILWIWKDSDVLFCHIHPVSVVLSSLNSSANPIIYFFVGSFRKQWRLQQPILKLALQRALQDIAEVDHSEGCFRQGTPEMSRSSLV
Test: MRGPRX2 Activity Assay
property_label: log10(IC50) (log10 of the value in nM)
// stored as log10 of IC50 expressed in nM

C[C@@H](C(=O)Nc1nc2cc3c(cc2s1)OC(F)(F)O3)N1CCC(F)(F)[C@@H](c2c[nH]c(=O)c(CO)c2)C1 [WO2025064535, Compound 88]    3.29
C[C@@H](C(=O)Nc1nc2cc3c(cc2s1)CCC3)N1CCC(F)(F)[C@H](c2c[nH]c(=O)c(CO)c2)C1 [WO2025064535, Compound 107]    1.69

Task item: # query: log10(IC50) of entry C[C@@H](C(=O)Nc1cc2cc3c(cc2s1)OC(F)(F)O3)N1CCC(F)(F)[C@@H](c2c[nH]c(=O)c([C@H](N)C(F)(F)F)c2)C1 [WO2025064535, Compound 14]
Reply: 4.11

Task item: Item under review: C[C@@H](C(=O)Nc1nc2cc3c(cc2s1)OCCO3)N1CCC(F)(F)[C@@H](c2c[nH]c(=O)cn2)C1 [WO2025064535, Compound 40] . Reported log10(IC50)?
Reply: 2.89

Task item: Quick check: log10(IC50) of C[C@@H](C(=O)Nc1nc2cc3c(cc2s1)CCC3)N1CCC(F)(F)CC1 [WO2025064535, Compound 18] ?
Reply: 1.93

Task item: Look at this compound and give its reported log10(IC50). C[C@@H](C(=O)Nc1nc2cc3c(cc2s1)OC(F)(F)O3)N1CCC(F)(F)[C@H](c2cc[n+]([O-])c([C@H](O)CO)c2)C1 [WO2025064535, Compound 54]
Reply: 0.89

Task item: Entry under review: C[C@@H](C(=O)Nc1nc2cc3c(cc2s1)OCO3)N1CCC(F)(F)[C@@H](c2cc[n+]([O-])cc2)C1 [WO2025064535, Compound 80] . Reported log10(IC50)?
Reply: 2.29

Task item: Bench note: what log10(IC50) did C[C@@H](C(=O)Nc1nc2cc3c(cc2s1)OC(F)(F)O3)N1CCC(F)(F)[C@H](c2c[nH]c(=O)c([C@@H](O)CO)c2)C1 [WO2025064535, Compound 43] show?
Reply: 1.04

Task item: What does the data say about its log10(IC50)? Entry: C[C@@H](C(=O)Nc1nc2cc3c(cc2s1)OC(F)(F)O3)N1CCC(F)(F)[C@@H](c2c[nH]c(=O)c([C@H](N)C(F)F)c2)C1 [WO2025064535, Compound 21]
Reply: 1.26
